Assay: Oral bioavailability studies in dogs (plasma concentration by bioassay)
Type: in vivo
Settings: dog, plasma, read-out: t1/2, Mean ± SE (converted)
RECORDED_METRIC: half-life (h)
Reply numerically in h, unit not repeated.

The compound identified as C#CC[C@H](NC(=O)C(CC(=O)N(C)CCN(C)C)Cc1ccccc1)C(=O)NC(CC1CCCCC1)[C@@H](O)C(O)CC(C)C (relative stereo) registered its half-life at 4.7

* * *

Experiment: Oral bioavailability studies in dogs (plasma concentration by bioassay)
Format: in vivo
Conditions: dog, plasma, oral, 10 mg/kg, IG at 10 mg/kg, 1 hr, read-out: Estimated Plasma Concentration, Mean ± SE
RECORDED_METRIC: concentration at 1 h (ng/mL)
Reply numerically in ng/mL, unit not repeated.

The molecule identified as C#CC[C@H](NC(=O)C(CC(=O)N(C)CCN(C)C)Cc1ccccc1)C(=O)NC(CC1CCCCC1)[C@@H](O)C(O)CC(C)C (relative stereo) [Example 1] registered its concentration at 1 h at 799

* * *

Experiment: Oral bioavailability studies in marmosets (plasma concentration by bioassay)
Type: in vivo
Conditions: marmoset, plasma, oral, 10 mg/kg, marmoset, IG at 10 mg/kg, 4 hr; Test Run B; read-out: Plasma Concentrations, Mean ± SE
RECORDED_METRIC: concentration at 4 h
State the value, then name its unit.

The compound identified as C#CC[C@H](NC(=O)C(CC(=O)N(C)CCN(C)C)Cc1ccccc1)C(=O)NC(CC1CCCCC1)[C@@H](O)C(O)CC(C)C (relative stereo) [Example 1] registered its concentration at 4 h at 3360 ng/mL

* * *

Test: Oral bioavailability studies in marmosets (plasma concentration by bioassay)
Assay type: in vivo
Conditions: marmoset, plasma, iv, 1 mg/kg, marmoset, IV at 1 mg/kg, Test Run C, 6 hr, individual animals; read-out: Plasma Concentrations
RECORDED_METRIC: concentration at 6 h (µg/mL)
Reply numerically in µg/mL, unit not repeated.

The compound identified as C#CC[C@H](NC(=O)C(CC(=O)N(C)CCN(C)C)Cc1ccccc1)C(=O)NC(CC1CCCCC1)[C@@H](O)C(O)CC(C)C (relative stereo) registered its concentration at 6 h at 0.264

* * *

Assay: Oral bioavailability studies in marmosets (plasma concentration by bioassay)
Format: in vivo
Details: marmoset, plasma, oral, 10 mg/kg, marmoset, IG at 10 mg/kg, 1 hr; Test Run B; read-out: Plasma Concentrations, Mean ± SE
RECORDED_METRIC: concentration at 1 h (ng/mL)
Reply numerically in ng/mL, unit not repeated.

The compound identified as C#CC[C@H](NC(=O)C(CC(=O)N(C)CCN(C)C)Cc1ccccc1)C(=O)NC(CC1CCCCC1)[C@@H](O)C(O)CC(C)C (relative stereo) [Example 1] registered its concentration at 1 h at 3840

* * *

Assay: Oral bioavailability studies in dogs (plasma concentration by bioassay)
Type: in vivo
Settings: dog, plasma, oral, 10 mg/kg, IG at 10 mg/kg, 2 hr, read-out: Estimated Plasma Concentration, Mean ± SE
Experimental: The bioavailability in marmosets and dogs was determined by sampling the blood via the femoral vein at various time points after administering the renin inhibitor compounds of the invention in polyethylene glycol 400 at an intragastric dose of 10 mg/kg or at an intravenous dose of 1 mg/kg. […] Renin inhibitor plasma concentrations were determined by a bioassay. […] The renin activity was determined by a standard angiotensin I radioimmunoassay (New England Nuclear Corp.). […]
RECORDED_METRIC: concentration at 2 h
State the value, then name its unit.

The compound identified as C#CC[C@H](NC(=O)C(CC(=O)N(C)CCN(C)C)Cc1ccccc1)C(=O)NC(CC1CCCCC1)[C@@H](O)C(O)CC(C)C (relative stereo) [Example 1] registered its concentration at 2 h at 502 ng/mL

Cited source for all entries: patent US6515025B2
